// Plant response rating, Waterhemp lookup, one value per entry
# System: waterhemp (common waterhemp, Amaranthus rudis)
# experiment: Test C greenhouse herbicide test, pre- and postemergence
# Type: in vivo
# condition notes: Postemergence, 31 g ai/ha; scale 0 to 100 (0 no effect, 100 complete control)
Note: the reply should be a number with no unit written.

{"columns": ["mol smiles", "measured value"],
 "data": [
  ["COC(=O)Oc1c(C)nn(C)c(=O)c1-c1ccc(Br)c2ccccc12", 95],
  ["CC(=O)Oc1c(C)nn(C)c(=O)c1-c1c(C)sc2ccc(C(F)(F)F)cc12", 40],
  ["CCCC(=O)Oc1c(C)nn(C)c(=O)c1-c1c(C)sc2ccc(C)cc12", 80],
  ["Cc1ccc2ccccc2c1-c1c(O)c(C(F)(F)F)nn(C)c1=O", 25]
]}

Read the next record carefully.
Ask: For the compound shown here, CCC(=O)Oc1c(C)nn(C)c(=O)c1-c1ccc(F)c2ccccc12 , give the reported Plant response rating, Waterhemp.
Reply: 85

The reported measurements were obtained from patent US10597388B2.
